- Tested on: SF-295 CNS
- protocol-text: NCI-60 one-dose screen, 48 h
- conditions-used: 10 µM unless noted
The panel holds about 83,000 compounds, 20% with a hit somewhere; the sample as a whole holds those more often. Active and inactive are the calls of the source. How the source made its calls: active means growth percent below 10; inactive means the rest.
Labels: active, inactive

[
  {
    "molecule": "O=c1c(-c2nc(-c3ccccc3)c(-c3ccccc3)[nH]2)coc2ccc(F)cc12",
    "category": "inactive"
  },
  {
    "molecule": "Cn1cc(-c2cc3nc(-c4cn(C)c5ncc(Br)cc45)cc(N)n3n2)c2cc(F)ccc21",
    "category": "active"
  },
  {
    "molecule": "Cn1cc(-c2cc(N)n3nc(-c4c[nH]c5ccc(Cl)cc45)cc3n2)c2cccnc21",
    "category": "active"
  },
  {
    "molecule": "O=C(Nc1nc2ccccc2s1)Nc1ccccc1Cl",
    "category": "inactive"
  },
  {
    "molecule": "Cc1nn(-c2ccccc2)c2nc(C)n(C(=O)N/N=C/c3ccccc3)c(=O)c12",
    "category": "inactive"
  },
  {
    "molecule": "Cc1ccc(O)cc1Nc1nc(SCCN2CCOCC2)nc2c1cnn2CC(Cl)c1ccc(Br)cc1 (stereo not drawn)",
    "category": "active"
  },
  {
    "molecule": "CCCCCCCCCc1ccc(C(=O)Nc2cc(C)ccc2C(=O)OC)cc1",
    "category": "inactive"
  },
  {
    "molecule": "COC(=O)c1cc(C(=O)C(Br)Br)n2c1ccc1c3ccccc3ccc12",
    "category": "inactive"
  },
  {
    "molecule": "c1n[nH]cc1-c1nc2ccc3cn[nH]c3c2c2c1CCCC2",
    "category": "inactive"
  },
  {
    "molecule": "C[C@@H]1[C@H]2C[C@@H](C[C@H]1NCc1nc3ccccc3n1C1CCCCCC1)C2(C)C",
    "category": "inactive"
  },
  {
    "molecule": "CCOC(=O)/C(F)=C/C1CC1CCc1ccc(OCC)cc1 (stereo not drawn)",
    "category": "inactive"
  },
  {
    "molecule": "O=C(CSc1nnc(-c2ccc(-c3nc4ccc(Cl)cc4[nH]3)cc2)o1)Nc1ccccc1",
    "category": "inactive"
  },
  {
    "molecule": "CCc1ccccc1-c1nc(CN[C@@H]2C[C@@H]3C[C@H]([C@H]2C)C3(C)C)c(C)o1",
    "category": "active"
  },
  {
    "molecule": "COc1ccc2c(c1)N=c1c-2cc2c(O)[nH]c(=S)n2c1=O",
    "category": "inactive"
  },
  {
    "molecule": "CCCCCCCCc1ccc(C(=O)Nc2cccc(O)c2)cc1",
    "category": "inactive"
  },
  {
    "molecule": "O=C(CSc1nc2ccccc2c(=O)[nH]1)NNC(=O)c1ccccc1Cl",
    "category": "inactive"
  },
  {
    "molecule": "Cc1ccc(-c2cc(C(=O)N=Nc3c(O)[nH]c4ccc(F)cc34)c3ccccc3n2)cc1",
    "category": "inactive"
  },
  {
    "molecule": "CC1=C(C(=O)Nc2ccccc2)C(c2cccc3ccccc23)n2c(nc3ccccc32)N1 (stereo not drawn)",
    "category": "inactive"
  },
  {
    "molecule": "N#Cc1cc(-c2ccnc(Nc3ccc(N4CCN(C5COC5)CC4)cc3)n2)ccc1N1CCCC1",
    "category": "inactive"
  },
  {
    "molecule": "O=C(Nc1ccc(-c2ccc3c(c2)NC(=O)/C3=C\\c2ccc[nH]2)cc1)Nc1cccc(Cl)c1",
    "category": "active"
  },
  {
    "molecule": "Cc1ccc(-c2cc(-c3ccccc3)[nH]c(=O)c2C#N)cc1",
    "category": "inactive"
  },
  {
    "molecule": "Cc1[nH]nc2ccc3nc(-c4cn[nH]c4C(F)(F)F)c4c(c3c12)CCCC4",
    "category": "active"
  },
  {
    "molecule": "CN1CCN(CCS(=O)(=O)Nc2cc(-c3ccc4ncnc(Nc5ccc(F)c(Cl)c5)c4c3)cnc2Cl)CC1",
    "category": "active"
  },
  {
    "molecule": "COc1ccc([C@H]2C(C(=O)c3ccc(Cl)cc3)C3(N[C@@H]2c2ccccc2)C(=O)Nc2ccccc23)cc1 (stereo partly drawn)",
    "category": "inactive"
  },
  {
    "molecule": "S=C(NCCc1ccccc1)Nc1ccc(OCc2nc3ccc(Cl)cc3[nH]2)cc1",
    "category": "inactive"
  },
  {
    "molecule": "NC(=O)c1ccc(-c2ccc3ncnc(N4CCc5cc(F)c(Cl)cc54)c3c2)cn1",
    "category": "inactive"
  },
  {
    "molecule": "COc1ccc2[nH]c(=O)c(CSc3ccccc3Nc3nccc(-c4ccc(C(F)(F)F)cc4)n3)cc2c1",
    "category": "active"
  },
  {
    "molecule": "COc1cc(/C=C/C(=O)c2cnn(-c3cc(=O)[nH]c4ccc(C)cc34)c2C)cc(OC)c1OC",
    "category": "inactive"
  }
]
